test: Enzyme screens for resolution of racemic N-(methoxycarbonyl)-4,4-dimethoxy-D,L-proline methyl ester (Example 8, comparative); assay type: biochemical; conditions: 0.100M racemate; 0.25M potassium phosphate pH 7.0; 6 h or 17 h; 5.0 to 30 mg/mL enzyme; 25° C.
RESULT TYPE: conv. (percent conversion of the racemate)

INSERT INTO results (molecule, assay_value) VALUES
  ('protease, type XXVII: commercial enzyme preparation, (Nagarase) (protein, UniProt P00782 108-382, looked up) Subtilisin BPN'': AQSVPYGVSQIKAPALHSQGYTGSNVKVAVIDSGIDSSHPDLKVAGGASMVPSETNPFQDNNSHGTHVAGTVAALNNSIGVLGVAPSASLYAVKVLGADGSGQYSWIINGIEWAIANNMDVINMSLGGPSGSAALKAAVDKAVASGVVVVAAAGNEGTSGSSSTVGYPGKYPSVIAVGAVDSSNQRASFSSVGPELDVMAPGVSIQSTLPGNKYGAYNGTSMASPHVAGAAALILSKHPNWTNTQVRSSLENTTTKLGDSFYYGKGLINVQAAAQ', '44%'),
  ('protease (Chirazyme P1): commercial enzyme preparation, source Bacillus licheniformis (protein, UniProt P00780 106-379, looked up) Subtilisin Carlsberg: AQTVPYGIPLIKADKVQAQGFKGANVKVAVLDTGIQASHPDLNVVGGASFVAGEAYNTDGNGHGTHVAGTVAALDNTTGVLGVAPSVSLYAVKVLNSSGSGSYSGIVSGIEWATTNGMDVINMSLGGASGSTAMKQAVDNAYAKGVVVVAAAGNSGSSGNTNTIGYPAKYDSVIAVGAVDSNSNRASFSSVGAELEVMAPGAGVYSTYPTNTYATLNGTSMASPHVAGAAALILSKHPNLSASQVRNRLSSTATYLGSSFYYGKGLINVEAAAQ', '44%'),
  ('protease, type XXIV: commercial enzyme preparation, source bacterial (subtil. Carlsberg) (protein, UniProt P00780 106-379, looked up) Subtilisin Carlsberg: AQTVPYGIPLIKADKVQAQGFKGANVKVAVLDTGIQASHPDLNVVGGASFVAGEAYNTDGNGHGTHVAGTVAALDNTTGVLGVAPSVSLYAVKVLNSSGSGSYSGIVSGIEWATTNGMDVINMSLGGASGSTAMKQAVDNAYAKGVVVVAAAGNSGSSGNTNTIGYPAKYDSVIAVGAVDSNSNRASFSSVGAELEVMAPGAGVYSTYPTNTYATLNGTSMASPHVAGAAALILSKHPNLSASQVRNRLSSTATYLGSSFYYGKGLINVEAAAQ', '42%');
